Answer each item with its documented inhibition.
target or system: Histone deacetylase 2 (Homo sapiens, UniProt Q92769)
Sequence (Q92769 whole entry): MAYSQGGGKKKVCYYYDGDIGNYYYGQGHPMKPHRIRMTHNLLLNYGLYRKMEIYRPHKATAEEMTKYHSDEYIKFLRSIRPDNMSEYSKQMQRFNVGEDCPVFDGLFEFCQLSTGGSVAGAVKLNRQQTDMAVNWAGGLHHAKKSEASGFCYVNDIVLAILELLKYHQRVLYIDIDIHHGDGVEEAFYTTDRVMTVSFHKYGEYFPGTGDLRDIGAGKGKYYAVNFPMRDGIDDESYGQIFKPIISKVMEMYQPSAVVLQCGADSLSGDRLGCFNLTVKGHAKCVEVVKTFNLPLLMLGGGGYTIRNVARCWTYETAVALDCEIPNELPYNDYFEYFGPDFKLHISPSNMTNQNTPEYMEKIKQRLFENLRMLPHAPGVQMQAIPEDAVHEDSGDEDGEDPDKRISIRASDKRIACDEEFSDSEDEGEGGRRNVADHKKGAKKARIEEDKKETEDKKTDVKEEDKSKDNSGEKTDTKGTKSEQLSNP
assay text: Inhibition of full-length recombinant human C-terminal GST tagged HDAC2 expressed in Sf9 insect cells using aminoluciferin peptide substrate at 100 nM preincubated for 3 hrs followed by substrate addition and measured after 30 mins by HDAC-Glo I/II chemiluminescence assay
applied conditions: time 3.5 hrs
Just the number please, in %, no unit attached.

Query :: inhibition of `Nc1ccc(-c2ccsc2)cc1NC(=O)c1cn(Cc2ccc(OC(F)(F)F)cc2)nn1` on Histone deacetylase 2 (Homo sapiens, UniProt Q92769)?
Result :: 0

Query :: Check `Nc1ccc(-c2cccs2)cc1NC(=O)c1ccc(-c2cn(CC(=O)c3ccccc3)nn2)s1` too.
Result :: 22

Query :: Check `Nc1ccc(-c2cccs2)cc1NC(=O)CCc1cn(CCc2cccc(C(F)(F)F)c2)nn1` too.
Result :: 3

Query :: Check `Nc1ccc(-c2cccnc2)cc1NC(=O)CCc1cn(CCc2ccc(Cl)cc2)nn1` too.
Result :: 7

Query :: Check `Nc1ccc(-c2ccc(F)cc2)cc1NC(=O)CCc1cn(CCc2ccc(C(=O)O)cc2)nn1` too.
Result :: 33

Query :: Check `Cc1ccc(-n2cc(-c3ccc(C(=O)Nc4cc(-c5cccs5)ccc4N)s3)nn2)cc1C` too.
Result :: 0

Query :: Check `Nc1ccc(-c2ccc(F)cc2)cc1NC(=O)c1cn(CCN2CCOCC2)nn1` too.
Result :: 10

Query :: Check `Cc1ccc(CCn2cc(-c3ccc(C(=O)Nc4cc(-c5cccs5)ccc4N)cc3)nn2)cc1` too.
Result :: 19

Query :: Check `Nc1ccc(-c2ccsc2)cc1NC(=O)CCc1cn(-c2ccccc2-c2ccccc2)nn1` too.
Result :: 2
